test system: EC-GI-10 (Esophageal Squamous Cell Carcinoma); experiment: combination Emax (second highest fraction inhibited in the dose matrix, 72 h); higher = more inhibition; extreme values may be limits of the assay
Recorded combination Emax by entry

molecule: COc1nnc2ccc(N3CCC(c4ccc(OCCN5CCN(C)C(=O)[C@H]5C)cc4)CC3)nn12 [AZD5153] + Cc1c2c(nn1C)CSCc1cc(n(C)n1)CSc1cc(c3ccccc3c1)OCCCc1c(C(=O)O)n(C)c3c-2c(Cl)ccc13 [AZD5991] (first compound max 1 µM, 7x7, partner max 1 µM)
combination Emax: 0.671
//
molecule: Cn1cnc2c(F)c(Nc3ccc(Br)cc3Cl)c(C(=O)NOCCO)cc21 [Selumetinib] + C[C@@H]1COCCN1C2=NC(=NC(=C2)C3(CC3)[S@](=N)(=O)C)C4=C5C=CNC5=NC=C4 [AZD6738] (first compound max 10 µM, 7x7, partner max 10 µM)
combination Emax: 0.647
//
molecule: CS(=O)(=O)CCNCc1ccc(-c2ccc3ncnc(Nc4ccc(OCc5cccc(F)c5)c(Cl)c4)c3c2)o1 [Lapatinib] + C[C@@H](Oc1cc(-c2cnn(C3CCNCC3)c2)cnc1N)c1c(Cl)ccc(F)c1Cl [Crizotinib] (first compound max 10 µM, 7x7, partner max 10 µM)
combination Emax: 0.986
//
molecule: Cn1cnc2c(F)c(Nc3ccc(Br)cc3Cl)c(C(=O)NOCCO)cc21 [Selumetinib] + C=CCn1c(=O)c2cnc(Nc3ccc(N4CCN(C)CC4)cc3)nc2n1-c1cccc(C(C)(C)O)n1 [AZD1775] (first compound max 10 µM, partner max 1 µM)
combination Emax: 0.919
//
molecule: Cc1c2c(nn1C)CSCc1cc(n(C)n1)CSc1cc(c3ccccc3c1)OCCCc1c(C(=O)O)n(C)c3c-2c(Cl)ccc13 [AZD5991] + C1CN(CCC1(C(=O)N[C@@H](CCO)C2=CC=C(C=C2)Cl)N)C3=NC=NC4=C3C=CN4 [Capivasertib] (first compound max 1 µM, 7x7, partner max 3 µM)
combination Emax: 0.775
//
molecule: Cc1c2c(nn1C)CSCc1cc(n(C)n1)CSc1cc(c3ccccc3c1)OCCCc1c(C(=O)O)n(C)c3c-2c(Cl)ccc13 [AZD5991] + CC1(C)CCC(CN2CCN(c3ccc(C(=O)NS(=O)(=O)c4ccc(NCC5CCOCC5)c([N+](=O)[O-])c4)c(Oc4cnc5[nH]ccc5c4)c3)CC2)=C(c2ccc(Cl)cc2)C1 [Venetoclax] (first compound max 1 µM, 7x7, partner max 1 µM)
combination Emax: 0.448
//
molecule: NC1(C(=O)N[C@@H](CCO)c2ccc(Cl)cc2)CCN(c2ncnc3[nH]ccc23)CC1 [Capivasertib] + C[C@@H]1COCCN1C2=NC(=NC(=C2)C3(CC3)[S@](=N)(=O)C)C4=C5C=CNC5=NC=C4 [AZD6738] (first compound max 10 µM, 7x7, partner max 10 µM)
combination Emax: 0.7
